- test-target: UniProtKB P50406
- Sequence (P50406 whole entry): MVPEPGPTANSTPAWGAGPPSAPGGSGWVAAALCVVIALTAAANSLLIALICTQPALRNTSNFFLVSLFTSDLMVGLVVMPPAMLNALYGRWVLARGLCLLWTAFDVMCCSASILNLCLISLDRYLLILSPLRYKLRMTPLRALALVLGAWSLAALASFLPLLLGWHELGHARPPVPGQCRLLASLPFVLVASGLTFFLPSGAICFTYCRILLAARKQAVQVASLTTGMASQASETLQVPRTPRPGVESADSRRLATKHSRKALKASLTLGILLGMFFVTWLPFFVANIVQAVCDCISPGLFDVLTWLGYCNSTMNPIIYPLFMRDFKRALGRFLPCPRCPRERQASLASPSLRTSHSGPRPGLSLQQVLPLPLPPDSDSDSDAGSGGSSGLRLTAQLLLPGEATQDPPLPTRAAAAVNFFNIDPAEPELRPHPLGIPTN
- test-name: Nova Screen binding assay for human 5-HT6 receptor ([3H]LSD)
- run-conditions: Human recombinant receptor expressed in HEK-293 cells; [3H]LSD 1.5 nM; 60 minutes at 37° C.
Each entry below carries its reported IC50.

- molecule: "CC(C)c1ccc(S(=O)(=O)n2c3c(c4cc(F)ccc42)CC(N(C)C)CC3)cc1 (stereo not drawn) [Example 23]"
  units-of-measure: "nM"
  IC50: 33.4
- molecule: "COc1ccc2c(c1)c1c(n2S(=O)(=O)c2ccc(Br)cc2)CCC(N(C)C)C1 (stereo not drawn) [Example 29]"
  units-of-measure: "nM"
  IC50: 28.9
- molecule: "CN(C)C1CCc2c(c3cc(F)ccc3n2S(=O)(=O)c2ccc(Br)cc2)C1 (stereo not drawn) [Example 24]"
  units-of-measure: "nM"
  IC50: 99.7
- molecule: "Cc1ccc(S(=O)(=O)n2c3c(c4cc(F)ccc42)CC(N(C)C)CC3)cc1 (stereo not drawn) [Example 22]"
  units-of-measure: "nM"
  IC50: 64.3
- molecule: "CSc1ccc2c(c1)c1c(n2S(=O)(=O)c2ccc(F)cc2)CCC(N(C)C)C1 (stereo not drawn) [Example 35]"
  units-of-measure: "nM"
  IC50: 47.1
- molecule: "CN(C)C1CCc2c(c3cc(F)ccc3n2S(=O)(=O)c2ccc(F)cc2)C1 (stereo not drawn) [Example 25]"
  units-of-measure: "nM"
  IC50: 63.5
- molecule: "CN(C)C1CCc2c(c3cc(Br)ccc3n2S(=O)(=O)c2ccc(F)cc2)C1 (stereo not drawn) [Example 11]"
  units-of-measure: "nM"
  IC50: 20.2
- molecule: "CN(C)C1CCc2c(c3ccccc3n2S(=O)(=O)c2ccc(F)cc2)C1 (stereo not drawn) [Example 3]"
  units-of-measure: "nM"
  IC50: 27
- molecule: "COc1ccc2c(c1)c1c(n2S(=O)(=O)c2ccc(C)cc2)CCC(N(C)C)C1 (stereo not drawn) [Example 27]"
  units-of-measure: "nM"
  IC50: 11.7

====

- molecule: "CN(C)C1CCc2c(c3cc(Cl)ccc3n2S(=O)(=O)c2ccccc2)C1 (stereo not shown)"
  melting point: "150 to 155 °C"
- molecule: "CC(C)c1ccc(S(=O)(=O)n2c3c(c4cc(F)ccc42)CC(N(C)C)CC3)cc1 (stereo not shown) [Example 23]"
  melting point: "95.4 to 103.8 °C"
- molecule: "CC(C)c1ccc(S(=O)(=O)n2c3c(c4cc(Br)ccc42)CC(N(C)C)CC3)cc1 (stereo not shown)"
  melting point: "152.75 to 154.98 °C"
- molecule: "CSc1ccc2c(c1)c1c(n2S(=O)(=O)c2ccc(F)cc2)CCC(N(C)C)C1 (stereo not shown) [Example 35]"
  melting point: "148.9 to 156.1 °C"
- molecule: "COc1ccc2c(c1)c1c(n2S(=O)(=O)c2ccc(Br)cc2)CCC(N(C)C)C1 (stereo not shown) [Example 29]"
  melting point: "173.2 to 173.8 °C"
- molecule: "CN(C)C1CCc2c(c3ccccc3n2S(=O)(=O)c2ccc(F)cc2)C1 (stereo not shown) [Example 3]"
  melting point: "130.2 to 132.8 °C"
- molecule: "CN(C)C1CCc2c(c3cc(F)ccc3n2S(=O)(=O)c2ccc(F)cc2)C1 (stereo not shown) [Example 25]"
  melting point: "147.5 to 151.2 °C"
- molecule: "CSc1ccc2c(c1)c1c(n2S(=O)(=O)c2ccc(C)cc2)CCC(N(C)C)C1 (stereo not shown) [Example 33]"
  melting point: "105.2 to 115 °C"
- molecule: "COc1ccc2c(c1)c1c(n2S(=O)(=O)c2ccc(C)cc2)CCC(N(C)C)C1 (stereo not shown) [Example 27]"
  melting point: "131.8 to 140 °C"
- molecule: "COc1ccc2c(c1)c1c(n2S(=O)(=O)c2ccc(F)cc2)CCC(N(C)C)C1 (stereo not shown) [Example 30]"
  melting point: "160.7 to 163.4 °C"
- molecule: "CN(C)C1CCc2c(c3cc(F)ccc3n2S(=O)(=O)c2ccc(Br)cc2)C1 (stereo not shown) [Example 24]"
  melting point: "170.6 to 174.1 °C"
- molecule: "CN(C)C1CCc2c(c3cc(Br)ccc3n2S(=O)(=O)c2ccccc2Br)C1 (stereo not shown) [Example 14]"
  melting point: "158.78 to 161.04 °C"
- molecule: "CN(C)C1CCc2c(c3cc(Br)ccc3n2S(=O)(=O)c2ccc(F)cc2)C1 (stereo not shown) [Example 11]"
  melting point: "158.1 to 160 °C"
- molecule: "CN(C)C1CCc2c(c3cc(F)ccc3n2S(=O)(=O)c2ccccc2)C1 (stereo not shown) [Example 21]"
  melting point: "127.7 to 130.3 °C"
- molecule: "COc1ccc2c(c1)c1c(n2S(=O)(=O)c2cccc(C(F)(F)F)c2)CCC(N(C)C)C1 (stereo not shown) [Example 31]"
  melting point: "144 to 146 °C"
- molecule: "Cc1ccc(S(=O)(=O)n2c3c(c4cc(F)ccc42)CC(N(C)C)CC3)cc1 (stereo not shown) [Example 22]"
  melting point: "148.8 to 153 °C"
- molecule: "CN(C)C1CCc2c(c3cc(Br)ccc3n2S(=O)(=O)c2cccc(Cl)c2Cl)C1 (stereo not shown) [Example 39]"
  melting point: "189 to 192 °C"
- molecule: "Cc1ccc(S(=O)(=O)n2c3c(c4cc(Cl)ccc42)CC(N(C)C)CC3)cc1 (stereo not shown)"
  melting point: "130 to 138 °C"
- molecule: "CN(C)C1CCc2c(c3cc(Cl)ccc3n2S(=O)(=O)c2ccc(F)cc2)C1 (stereo not shown) [Example 20]"
  melting point: "150 to 155 °C"
